System: Plasmodium falciparum
Assay: NOVARTIS: Inhibition of Plasmodium falciparum 3D7 (drug-susceptible) proliferation in erythrocyte-based infection assay
Format: functional, organism-based
Conditions: Plasmodium falciparum, 3D7
I'd appreciate it if you could supply log10 EC50 values for the items below.
Scale: decimal log of EC50, EC50 in nM.

Fill in the blank: the reported log10 EC50 of OCCCCCCCCCCC[n+]1ccccc1 is ____.
2.12

Fill blank: measured log10 EC50 of the molecule CC[C@H]1CN2CC[C@@H]1C[C@@H]2[C@@H](O)c1ccnc2ccc(OC)cc12 is ____.
1.50

I am curious: what log10 EC50 value has been reported for Cc1ccc(NC(=O)C2CSC(c3cccc(F)c3)N2C(=O)c2ccc(C(C)(C)C)cc2)cc1C (stereo not drawn) ?
2.78

Fill in the blank: the reported log10 EC50 of CCc1c(C#N)c(N)nc(SCC(=O)c2ccc(C)cc2C)c1C#N is ____.
2.49

Would you kindly share the measured log10 EC50 for CCCc1c(C(=O)OCC)c2cc(O)ccc2n1-c1ccc(OC)cc1 ?
2.12

If you can, please state the reported log10 EC50 value of Cc1ccc(NC(=O)c2ccc(NCCCN3CCC(C)CC3)c([N+](=O)[O-])c2)cc1F .
2.28

Fill in the blank: the reported log10 EC50 of CCC(CC)CN1CCC(O)(c2ccc3oc(C(=O)Nc4ccc5c(c4)OCO5)cc3c2)CC1 is ____.
2.39

Need log10 EC50, item COc1ccc(N2C(N)=NC(N)=NC2(C)C)cc1
1.14

// lookup log10 EC50 for CSc1nc(N)nc(SC2C=CCCC2)c1C#N (stereo not drawn)
3.85

Consider the molecule O=C(Cc1ccccc1)NCc1nnc(SCC(=O)N2N=C(c3cccs3)CC2c2ccc(F)cc2)n1Cc1ccccc1 (stereo not drawn) and give its measured log10 EC50.
3.95

Any idea what its log10 EC50 is? The molecule is COc1ccc(OC)c(-c2ccc(O)c(CN3CCCCCC3)c2)c1
2.76

Fill in the blank: the reported log10 EC50 of COc1ccc(-c2nc(CN3CCCCC3)ccc2O)cc1 is ____.
2.12

Give its log10 EC50 value. Item: CC(=O)NC(c1ccc(N(C)C)cc1)c1cc(Cl)c2cccnc2c1O (stereo not drawn)
2.81

Param item = CCCCOC(=O)C1=C(C)NC2=C(C(=O)CCC2)C1c1ccc(Cl)c(Cl)c1 (stereo not drawn) ; retrieve measured log10 EC50.
2.76

What does the data say about its log10 EC50? Entry: COc1cc(NC(C)CCCN(Cc2ccccc2OC)C(=O)c2ccc(C)c([N+](=O)[O-])c2)c2ncccc2c1 (stereo not drawn)
2.94

# lookup: log10 EC50 of COC(=O)c1c(-c2c(F)cccc2Cl)noc1C=CNc1ccccc1
4.06

I have this molecule here, CCN1CCN(c2cc(C)c(C#N)c3nc4ccccc4n23)CC1 , and I need its recorded log10 EC50.
2.90

Given the molecule COC(=O)C1=CN(Cc2ccc(OC)cc2)C=C(C(=O)OC)C1c1cccs1 , what is its reported log10 EC50?
3.75

Item under review: Cc1cc(/C=C2\SC(=Nc3ccccc3)N(C3CCCCC3)C2=O)c(C)n1-c1ccc(Br)cc1 . Reported log10 EC50?
2.68

What log10 EC50 value was documented for this molecule, CC(C)(C)c1ccc(O)c(CNC2CCCCC2)c1 ?
2.40

What measured log10 EC50 goes with Nc1nonc1-n1nnc(C(=O)NN=Cc2cc(Br)cs2)c1-c1ccccc1 ?
2.84

Bench note: what log10 EC50 did CCNC(=O)NCCSc1nc(-c2ccccc2)c(-c2ccccc2)n1CC show?
3.21

Which log10 EC50 reading was recorded for the molecule COc1ccc(C2Sc3ccccc3N=C3C2=C(O)c2ccccc23)cc1 (stereo not drawn) ?
2.38

What log10 EC50 value was documented for this molecule, COc1cccc(CCOc2ccc3c(c2)C(=O)N(C(C(=O)NC(C)(C)C)c2cccc(OC)c2)C(CO)C(=O)N3)c1 (stereo not drawn) ?
2.18

Param item = COC(=O)c1ccc2c(=O)n(Cc3ccco3)c(SCC(=O)n3nc(N)cc3C)nc2c1 ; retrieve measured log10 EC50.
2.53

Quick one: log10 EC50 for Cc1ccn2c(NC(C)(C)CC(C)(C)C)c(-c3ccccc3OC(=O)C(C)(C)C)nc2c1 ?
2.72

Give the measured log10 EC50 of COc1ccc(OC(C)=O)c(C=NNC(=O)C(C)Oc2ccccc2Br)c1 (stereo not drawn) .
3.71

# lookup: log10 EC50 of CCCc1c(C)nc2ccccc2c1O
2.80

Find the recorded log10 EC50 belonging to COCCNC(=O)c1ccc(OC2CCN(CC(c3ccccc3)c3ccccc3)CC2)c(OC)c1 and report it.
2.48

// returns reported log10 EC50 for input COC(=O)c1ccc(Nc2nc(NCc3ccco3)c3ccccc3n2)cc1
2.45

Can you share its log10 EC50? I mean this molecule: CCOC(=O)c1cnc2c(ccc3ccccc32)c1Nc1ccc(NC(C)=O)cc1
3.84

Reported log10 EC50 for COc1cccc(-c2ccc(O)c(CNCCc3cccc(F)c3)c2)n1 : what is it?
3.04

Could you share which log10 EC50 value was measured for N#CC(=CC=Cc1ccc([N+](=O)[O-])o1)c1nc2ccccc2[nH]1 ?
2.58

Dear colleague, I am looking for the recorded log10 EC50 of the following molecule: CC(=O)Nc1ccc(C2NC(=O)NC3=Nc4ccccc4SC(c4ccccc4)=C32)cc1 (stereo not drawn)
3.01

Name the reported log10 EC50 value associated with the molecule COc1ccc(NC(=O)C=Cc2ccccc2Cl)cc1
2.99

Please give the measured log10 EC50 for this molecule: CCOC(=O)c1cnc2c(C)cccc2c1Nc1ccc(C(C)=O)cc1
2.08

Fill blank: measured log10 EC50 of the molecule COC(=O)NCCNC(=O)COC(c1cccs1)c1cccnc1Cl (stereo not drawn) is ____.
2.27
